# Tested on: Escherichia coli TOP10
# experiment description: shrunken log2 fold change of peptide-encoding DNA abundance (4.5 h post-induction vs induction); higher = less antimicrobial activity (less host growth inhibition)
# study conditions: time post-induction: 4.5 h; library: site-saturation at positions 5, 18, 19, 20
Label scheme for shrunken log2 fold change: lower than -0.07 is not met, -0.07 and above is met.

The following sequences have reported results that may help.
Task: Reported shrunken log2 fold change at or above -0.07? RRIRDRPPRLPRPRPRPWLDPRP
Result: met

Task: # iterate: RRIRCRPPRLPRPRPRPFGNPRP
Result: not met

Next:
Task: Test whether the sequence RRIRERPPRLPRPRPRPEPAPRP records shrunken log2 fold change of -0.07 or higher.
Result: met

Task: Next up: RRIRHRPPRLPRPRPRPGPCPRP
Result: not met

====

# System: Escherichia coli TOP10
# experiment description: shrunken log2 fold change of peptide-encoding DNA abundance (4.5 h post-induction vs induction); higher = less antimicrobial activity (less host growth inhibition)
# study conditions: time post-induction: 4.5 h; library: site-saturation at positions 5, 18, 19, 20
readout name: shrunken log2 fold change
Answers are plain numbers.

# example entries with known answers
Task: Name the recorded shrunken log2 fold change for RRIRDRPPRLPRPRPRPGACPRP .
Result: 0.23

Task: Here is the next sequence: RRIRWRPPRLPRPRPRPQLEPRP
Result: 0.0296

Task: Now consider RRIRCRPPRLPRPRPRPSDDPRP .
Result: 0.334

Task: Another sequence: RRIRPRPPRLPRPRPRPVYEPRP
Result: -0.0626

Others:
Task: Endpoint output: shrunken log2 fold change of RRIRRRPPRLPRPRPRPPTQPRP . Value?
Result: 0.678

====

# Test system: Escherichia coli TOP10
# experiment description: shrunken log2 fold change of peptide-encoding DNA abundance (4.5 h post-induction vs induction); higher = less antimicrobial activity (less host growth inhibition)
# study conditions: time post-induction: 4.5 h; library: site-saturation at positions 5, 18, 19, 20
I'd be grateful if you could share measured shrunken log2 fold change for these entries.
Numbers only.

Please review the entries below; each comes with its answer.
Task: shrunken log2 fold change lookup needed for RRIRNRPPRLPRPRPRPATAPRP , thanks.
Result: 0.0174

Task: Could you do the same for RRIRYRPPRLPRPRPRPANHPRP , please?
Result: -0.463

Task: Ok, now RRIRIRPPRLPRPRPRPIEPPRP
Result: 0.0377

Task: And for RRIRCRPPRLPRPRPRPTTPPRP ?
Result: 0.227

Task: What do we get for RRIRKRPPRLPRPRPRPVYSPRP ?
Result: 0.0204

Task: Param item: RRIRRRPPRLPRPRPRPLVDPRP
Result: 0.106

Task: Now try RRIRKRPPRLPRPRPRPWFCPRP .
Result: -0.0352

Task: Check RRIRFRPPRLPRPRPRPFETPRP too.
Result: -0.158

Task: Then this sequence: RRIRDRPPRLPRPRPRPTYDPRP
Result: -0.208

Task: Request: RRIRFRPPRLPRPRPRPIKVPRP
Result: -0.379

Parameters: items (list). Returns: shrunken log2 fold change for each item.
1. RRIRERPPRLPRPRPRPGCFPRP
2. RRIRFRPPRLPRPRPRPHHYPRP
3. RRIRKRPPRLPRPRPRPRDFPRP
4. RRIRERPPRLPRPRPRPVCPPRP
5. RRIRQRPPRLPRPRPRPGRDPRP

Result:
[0.199, -0.681, 0.188, -0.162, 3.85]

The following sequences each have a reported value; give each one's shrunken log2 fold change.
1. RRIRYRPPRLPRPRPRPQISPRP
2. RRIRCRPPRLPRPRPRPAAKPRP
3. RRIRSRPPRLPRPRPRPKWMPRP
4. RRIRHRPPRLPRPRPRPYRLPRP
5. RRIRERPPRLPRPRPRPLKFPRP

Result:
-0.0191
0.164
0.269
-0.302
-0.377

Go through the list and state shrunken log2 fold change for each entry.
1. RRIRERPPRLPRPRPRPENWPRP
2. RRIRKRPPRLPRPRPRPAQSPRP
3. RRIRVRPPRLPRPRPRPWHPPRP

Result:
-0.0337
0.0619
-0.0956

====

Assignment: determine reported shrunken log2 fold change for the given sequences.
# Tested on: Escherichia coli TOP10
# experiment description: shrunken log2 fold change of peptide-encoding DNA abundance (4.5 h post-induction vs induction); higher = less antimicrobial activity (less host growth inhibition)
# study conditions: time post-induction: 4.5 h; library: site-saturation at positions 5, 18, 19, 20
One number for each entry.

Task: Report shrunken log2 fold change for RRIRLRPPRLPRPRPRPHYMPRP tested on Escherichia coli TOP10.
Result: -0.969

Can you give me shrunken log2 fold change for all of these, one by one?
1. RRIRCRPPRLPRPRPRPKTTPRP
2. RRIRTRPPRLPRPRPRPCWYPRP
3. RRIRERPPRLPRPRPRPQSSPRP
4. RRIRNRPPRLPRPRPRPSNYPRP
5. RRIRARPPRLPRPRPRPSSTPRP

Result:
-0.000868
4
-0.533
-0.791
-0.0285

====

# Test system: Escherichia coli TOP10
# experiment description: shrunken log2 fold change of peptide-encoding DNA abundance (4.5 h post-induction vs induction); higher = less antimicrobial activity (less host growth inhibition)
# study conditions: time post-induction: 4.5 h; library: site-saturation at positions 5, 18, 19, 20
Category scheme (shrunken log2 fold change): band 1 = under -0.1, band 2 = from -0.1 up to 0.2, band 3 = 0.2 and over

Would you please look over these solved cases?
Task: Place this sequence in its band: RRIRQRPPRLPRPRPRPLKPPRP
Result: band 2

Task: # repeat for RRIRHRPPRLPRPRPRPKPNPRP
Result: band 3

More entries:
Task: Band for the recorded shrunken log2 fold change of RRIRQRPPRLPRPRPRPMSKPRP ?
Result: band 2

Task: Now the sequence RRIRARPPRLPRPRPRPNIQPRP
Result: band 1

Task: Follow-up item: RRIRMRPPRLPRPRPRPRNGPRP
Result: band 3

Task: And RRIRYRPPRLPRPRPRPPCCPRP ?
Result: band 1

Task: Same thing, different sequence: RRIRFRPPRLPRPRPRPTNTPRP
Result: band 1

Task: Now this one: RRIRMRPPRLPRPRPRPASHPRP
Result: band 3

Task: Follow-up entry: RRIRLRPPRLPRPRPRPYDEPRP
Result: band 1

====

# Tested on: Escherichia coli TOP10
# experiment description: shrunken log2 fold change of peptide-encoding DNA abundance (4.5 h post-induction vs induction); higher = less antimicrobial activity (less host growth inhibition)
# study conditions: time post-induction: 4.5 h; library: site-saturation at positions 5, 18, 19, 20
readout name: shrunken log2 fold change

Task: Which measured shrunken log2 fold change belongs to RRIRRRPPRLPRPRPRPGAFPRP , tested on Escherichia coli TOP10?
Result: 0.539

Task: Record: RRIRTRPPRLPRPRPRPESYPRP
Result: -0.0242

Report shrunken log2 fold change for each item below.
1. RRIRNRPPRLPRPRPRPVFYPRP
2. RRIRSRPPRLPRPRPRPCKHPRP
3. RRIRTRPPRLPRPRPRPPRAPRP
4. RRIRCRPPRLPRPRPRPRDCPRP

Result:
-0.19
-0.216
0.786
0.313

I need shrunken log2 fold change for every entry listed below, if you could help.
1. RRIRLRPPRLPRPRPRPMRGPRP
2. RRIRSRPPRLPRPRPRPFEPPRP

Result:
1. 0.839
2. -0.268

Hi team, please reply with shrunken log2 fold change for each item in this list.
1. RRIRVRPPRLPRPRPRPDKLPRP
2. RRIRRRPPRLPRPRPRPWTLPRP
3. RRIRDRPPRLPRPRPRPCELPRP
4. RRIRERPPRLPRPRPRPVRKPRP
5. RRIRMRPPRLPRPRPRPGDLPRP
6. RRIRPRPPRLPRPRPRPHRMPRP

Result:
[-0.0511, -0.195, 0.0111, -0.0457, -0.0671, -0.465]

State recorded shrunken log2 fold change for all listed sequences.
1. RRIRNRPPRLPRPRPRPRPDPRP
2. RRIRTRPPRLPRPRPRPRPFPRP
3. RRIRIRPPRLPRPRPRPQGAPRP

Result:
[0.0914, 0.114, 0.0368]

Task: Param readout= shrunken log2 fold change; system= Escherichia coli TOP10; entry= RRIRTRPPRLPRPRPRPWIQPRP ; returns value.
Result: -0.194

====

# System: Escherichia coli TOP10;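 note: peptides expressed intracellularly from a pBAD plasmid library in pooled LB shake-flask culture, induced with 0.3% L-arabinose, DNA abundance read by NGS, three biological replicates, DESeq2 with apeglm shrinkage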
# experiment description: shrunken log2 fold change of peptide-encoding DNA abundance (4.5 h post-induction vs induction); higher = less antimicrobial activity (less host growth inhibition)
# study conditions: time post-induction: 4.5 h; library: site-saturation at positions 5, 18, 19, 20
readout name: shrunken log2 fold change

Some entries whose results are on file:
Task: GET /values?readout=shrunken log2 fold change&item= RRIRCRPPRLPRPRPRPGCWPRP
Result: 0.569

Task: // next record RRIRQRPPRLPRPRPRPPQNPRP
Result: 0.663

Task: # iterate: RRIRGRPPRLPRPRPRPELNPRP
Result: 0.724

Hey, quick one: what's shrunken log2 fold change for each of these?
1. RRIRWRPPRLPRPRPRPDPYPRP
2. RRIRARPPRLPRPRPRPKMVPRP
3. RRIRARPPRLPRPRPRPQRKPRP
4. RRIRLRPPRLPRPRPRPCNFPRP
5. RRIRKRPPRLPRPRPRPCHCPRP
6. RRIRVRPPRLPRPRPRPGDVPRP
7. RRIRLRPPRLPRPRPRPHCDPRP
8. RRIRIRPPRLPRPRPRPCHPPRP

Result:
1. -0.198
2. 0.116
3. 0.365
4. -0.0369
5. -0.241
6. -0.262
7. 0.00399
8. -0.447

Working through the 5 sequences below one at a time, give shrunken log2 fold change for each.
1. RRIRIRPPRLPRPRPRPPLNPRP
2. RRIRRRPPRLPRPRPRPHGRPRP
3. RRIRIRPPRLPRPRPRPNIFPRP
4. RRIRERPPRLPRPRPRPPWTPRP
5. RRIRYRPPRLPRPRPRPMTIPRP

Result:
1. -0.227
2. 0.0549
3. -0.319
4. -0.0555
5. -0.936

Hi there! I need shrunken log2 fold change for each item below, if you can.
1. RRIRNRPPRLPRPRPRPPCKPRP
2. RRIRLRPPRLPRPRPRPKMAPRP
3. RRIRARPPRLPRPRPRPWCFPRP
4. RRIRDRPPRLPRPRPRPMTAPRP
5. RRIRARPPRLPRPRPRPGHGPRP
6. RRIRPRPPRLPRPRPRPWFLPRP

Result:
0.0896
0.259
0.0976
-0.0214
0.377
-0.458

Batch lookup, shrunken log2 fold change per entry.
1. RRIRQRPPRLPRPRPRPQSSPRP
2. RRIRSRPPRLPRPRPRPHMNPRP
3. RRIRHRPPRLPRPRPRPIFHPRP
4. RRIRARPPRLPRPRPRPDTNPRP
5. RRIRWRPPRLPRPRPRPMWMPRP

Result:
[0.0994, -0.548, -0.155, -0.0188, -0.195]
